Hey, just so you know, these numbers are from patent US20220274979A1.

Target: hSOS1 (hSOS1-mediated nucleotide exchange of hK-RasG12C) (Homo sapiens, UniProt Q07889)
Sequence (Q07889 with tags, fused parts or gaps): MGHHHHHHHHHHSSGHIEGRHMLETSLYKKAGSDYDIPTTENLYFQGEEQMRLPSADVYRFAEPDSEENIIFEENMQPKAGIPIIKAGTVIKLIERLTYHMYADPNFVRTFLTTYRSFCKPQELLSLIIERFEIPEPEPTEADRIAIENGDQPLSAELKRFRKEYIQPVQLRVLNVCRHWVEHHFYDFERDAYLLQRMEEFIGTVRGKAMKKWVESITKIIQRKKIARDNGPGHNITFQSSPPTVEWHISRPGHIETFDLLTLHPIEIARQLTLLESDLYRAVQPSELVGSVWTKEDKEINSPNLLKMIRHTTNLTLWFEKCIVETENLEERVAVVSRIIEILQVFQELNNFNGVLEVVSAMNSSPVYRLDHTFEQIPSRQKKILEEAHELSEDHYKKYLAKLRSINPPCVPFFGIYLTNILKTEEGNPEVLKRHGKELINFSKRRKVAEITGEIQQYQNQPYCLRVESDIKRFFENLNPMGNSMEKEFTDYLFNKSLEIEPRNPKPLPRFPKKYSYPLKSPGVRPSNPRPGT
The molecules listed here are annotated with their log10(IC50).
outcome-measure: log10(IC50) (log10 of the value in nM)

{"molecule": "Cc1nc(NC(C)c2ccc(-c3ccccc3CN(C)C)s2)c2cc(N3CCC3)ncc2n1 (centres unmarked)", "outcome-measure": "log10(IC50)", "readout-value": 1.74}
{"molecule": "COc1cc2c(NC(C)c3cccc4nn(C)cc34)nc(C)nc2cn1 (centres unmarked)", "outcome-measure": "log10(IC50)", "readout-value": 3.89}
{"molecule": "Cc1nc(NC(C)c2ccc(-c3ccccc3CN(C)C)s2)c2cc(OCC3CC3)ncc2n1 (centres unmarked)", "outcome-measure": "log10(IC50)", "readout-value": 2.11}
{"molecule": "CCOc1cc2c(N[C@H](C)c3ccc(Br)cc3)nc(C)nc2cn1", "outcome-measure": "log10(IC50)", "readout-value": 3.25}
{"molecule": "Cc1nc(NC(C)c2ccc(-c3ccccc3CN(C)C)s2)c2cc(N3CC(NCc4ccccc4)C3)ncc2n1 (centres unmarked)", "outcome-measure": "log10(IC50)", "readout-value": 1.77}
{"molecule": "COc1ncc2nc(C)nc(N[C@H](C)c3cccc(Br)c3)c2n1", "outcome-measure": "log10(IC50)", "readout-value": 3.99}
{"molecule": "Cc1nc(NC(C)c2ccc(-c3ccccc3CN(C)C)s2)c2cc(N3CC(NC(=O)CC4CC4)C3)ncc2n1 (centres unmarked)", "outcome-measure": "log10(IC50)", "readout-value": 2.14}

###

Target: hK-RasG12C - hSOS1 interaction (Homo sapiens, UniProt Q07889)
Construct: hSOS1 (amino acid 564-1049); made in house; host or cells: E. coli BL21 (DE3)
Assay: Biochemical Assay 1: hK-RasG12C interaction assay with hSOS1 (HTRF)
Assay type: binding
Excerpt: Biochemical Assay 1: hK-RasG12C Interaction Assay with hSOS1 This assay quantifies the equilibrium interaction of human SOS1 (hSOS1) with human K-Ras^G12C (hK-RasG12C). Detection of the interaction is achieved by measuring homogenous time-resolved fluorescence resonance energy transfer (HTRF) from antiGST-Europium (FRET donor) bound to GST-K-RasG12C to anti-6His-XL665 bound to His-tagged hSOS1 (FRET-acceptor). […]

{"compound": "Cc1nc(NC(C)c2ccc(-c3ccccc3CN(C)C)s2)c2cc(C3(O)CCN(C)C3=O)ncc2n1 (mixture of isomers)", "IC50": "83.4 nM"}
{"compound": "CC(=O)N(c1cccc(C(=O)NC2CN(c3cc4c(NC(C)c5ccc(-c6ccccc6CN(C)C)s5)nc(C)nc4cn3)C2)c1)C1CCN(C(=O)OC(C)(C)C)CC1 (centres unmarked)", "IC50": "271 nM"}
